Test system: carbapenem-resistant clinical strain, WC-452
Assay: Checkerboard assay to examine synergy with antibiotics in CAA/HuS
Type: cell-based, P. aeruginosa
Conditions: lysin + aztreonam
RECORDED ENDPOINT: FICI, Aztreonam

Note to self: FICI, Aztreonam recorded for GN147: Modified GN3, amino acid substitutions (R101D, R117H), SEQ ID NO: 5 (protein) MRTSQRGLSLIKSFEGLRLQAYQDSVGVWTIGYGTTRGVKAGMKISKDQAERMLLNDVQRFEPEVERLIKVPLNQDQWDALMSFTYNLGAANLESSTLRDLLNAGNYAAAAEQFPHWNKAGGQVLAGLTRRRAAERELFLGAA was 0.188
